- Tested On: T1, Bdf1 bromodomain 1 (GST-tagged, WT) (Saccharomyces cerevisiae (strain ATCC …, UniProt P35817))
- T1 chain: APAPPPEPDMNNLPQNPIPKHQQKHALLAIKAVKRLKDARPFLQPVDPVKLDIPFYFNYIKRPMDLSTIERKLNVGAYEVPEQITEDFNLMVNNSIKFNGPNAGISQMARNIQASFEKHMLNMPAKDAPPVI
- Procedure Text: histone peptide array probed with recombinant GST-bromodomain, signal normalised to myc peptide control
Non-standard residues stand in square brackets, D forms with d. No end group written: not given here. Arg(Me2a) = CN(C)C(=N)NCCC[C@H](N)C(=O)O; Arg(Me2s) = CN=C(NC)NCCC[C@H](N)C(=O)O; Lys(Me2) = CN(C)CCCC[C@H](N)C(=O)O; pS = N[C@@H](COP(=O)(O)O)C(=O)O; Lys(Me) = CNCCCC[C@H](N)C(=O)O
Measured Endpoint: binding score

ARTKQTARKSTGGKAPRKQ (A R T K Q T A R Kac S pT G G K A P R K Q) ... 0
PRKQLATKAA[Arg(Me2s)]K(Ac)[pS]APATGG ... 0.0061
PDPAK(Ac)SAPAPKK(Ac)GSK(Ac)KAVT [H2B 1-19] ... 0

[I] ARTKQTARKSTGGKAPRKQ (A Rme2s T Kme3 Q T A Rme2s Kme2 S T G G K A P R K Q)
[II] PRKQLATKAA[Arg(Me2s)][Lys(Me)][pS]APATGG
[III] PRKQLATKAA[Arg(Me2a)][Lys(Me2)]SAPATGG
input: Hello, I need these entries ordered by binding score, highest reading first. Thanks! Provide the labels, sequenced as the question asks.
output: III, I, II
